Hi there, I'd appreciate the recorded Preemergence herbicidal rating CASOB for every entry that follows.
# Test system: CASOB (Cassia obtusifolia)
# experimental protocol: Preemergence herbicidal evaluation
# Format: in vivo, L.
# assay setup: Rate 0.2500 kg/ha; rated 4-5 weeks after treatment
Numbers only.

Before answering, review these 6 worked examples.
{"compound": "Cn1c(C(F)(F)F)cc(=O)n(-c2ccc3snc(-c4sccc4Cl)c3c2)c1=O", "Preemergence herbicidal rating CASOB": 4.0}
{"compound": "Cc1ccc(-c2nsc3ccc(-n4c(=O)cc(C(F)(F)F)n(C)c4=O)cc23)nc1", "Preemergence herbicidal rating CASOB": 0.0}
{"compound": "Cc1cnn(-c2nsc3ccc(-n4c(=O)cc(C(F)(F)F)n(C)c4=O)cc23)c1", "Preemergence herbicidal rating CASOB": 0.0}
{"compound": "C[C@@H]1C[C@H](C)OC(c2nsc3ccc(-n4c(=O)cc(C(F)(F)F)n(C)c4=O)cc23)O1 (stereo partly shown)", "Preemergence herbicidal rating CASOB": 9.0}
{"compound": "Cc1sccc1-c1nsc2ccc(-n3c(=O)cc(C(F)(F)F)n(C)c3=O)cc12", "Preemergence herbicidal rating CASOB": 5.5}
{"compound": "Cn1c(C(F)(F)F)cc(=O)n(-c2ccc3snc(C4OCC(CBr)O4)c3c2)c1=O (stereo not shown)", "Preemergence herbicidal rating CASOB": 9.0}

For every item in the list below, what is its measured Preemergence herbicidal rating CASOB?
1. Cn1c(C(F)(F)F)cc(=O)n(-c2ccc3snc(C4OCC(CO)O4)c3c2)c1=O (stereo not shown)
2. Cn1c(C(F)(F)F)cc(=O)n(-c2ccc3snc(-c4sccc4CBr)c3c2)c1=O
3. C=CC1COC(c2nsc3ccc(-n4c(=O)cc(C(F)(F)F)n(C)c4=O)cc23)O1 (stereo not shown)
4. CC(C)C1COC(c2nsc3ccc(-n4c(=O)cc(C(F)(F)F)n(C)c4=O)cc23)=N1 (stereo not shown)

## Output
8.0
1.5
9.0
3.0
